Below, each of the binders is paired with its reported EC50 value.
target: GLP-1 receptor (UniProt P43220 24-463, limits assumed); assay: cell-based or functional assay
No end group written: not given here.
The reply should contain only the number, in pM.

As a guide, the following entries are already answered.
{"columns": ["BINDER", "OBSERVABLE", "EXPERIMENTAL VALUE"],
 "data": [
  ["HAEGTFTSDVSSYLEGQAAKEFIAWLVKGG-NH2 [GLP-1-VKGG30 (SEQ ID NO: 527)]", "EC50", 25],
  ["HSQGTFTSDYSKYLDSRRAQDFVQWLMDGGPSSGAPPPS-NH2 [MDGG30 PSSGAPPPS (SEQ ID NO: 525)]", "EC50", 130],
  ["HSQGTFTSDYSKYLDSRRAQDFVQWLMNGGPSSGAPPPS-NH2 [MNGG30 PSSGAPPPS (SEQ ID NO: 522)]", "EC50", 310]
]}

Then there is this binder:
GET /values?readout=EC50&item= HSQGTFTSDYSKYLDSRRAQDFVQWLVKGGPSSGAPPPS-NH2 [VKGG30 PSSGAPPPS (SEQ ID NO: 524)] 210
